target: Dihydrofolate reductase (Homo sapiens); assay: Inhibition of human DHFR at 50 uM
The source made the active and inactive calls. No cut-off for these calls is given here.
property_measured: inhibition

Below, each entry is followed by its recorded inhibition result.
• Nc1nnc(-c2cnccc2N)s1 = inactive
• O=C(CN1C(=O)c2ccccc2C1=O)Nc1nnc(CN2C(=O)c3ccccc3C2=O)s1 = inactive
• Nc1nnc(-c2ccc3[nH]nnc3c2)s1 = inactive
• Nc1nnc(CCC(=O)c2ccc(Cl)cc2)s1 = inactive

Request: // fetch Dihydrofolate reductase (Homo sapiens) inhibition for O=C(c1ccc(O)cc1)c1ccc(F)cc1
Response: inactive

Request: Can you check Nc1nnc(-c2cc(=O)c3ccccc3o2)s1 next?
Response: inactive

---

assay: Cytotoxicity against human MRC5 cells after 72 hrs by Alamar blue assay; format: cell-based; conditions: read-out: ED50
# reported CC50 at 72 h; entries follow
Give a bare numeral; the unit µg/mL is implied.

Completed entries (count: 3):
• Nc1nnc(-c2ccc3nn[nH]c3c2)s1 = 51.5
• CCc1nc(N)nc(N)c1-c1ccc(Cl)cc1 = 16.2
• O=C(CCCl)Nc1nnc(CCCl)s1 = 4.18

Request: CC50 at 72 h for Nc1nnc(CCC(=O)c2cccs2)s1 ?
Response: 34.4

Request: Thanks! And Nc1nnc(-c2cc(=O)c3ccccc3o2)s1 ?
Response: 43

Request: Try the molecule Nc1nc2ccc(OC(F)(F)F)cc2s1
Response: 27.9

---

assay: Solubility of the compound at pH 7.4; format: physicochemical; conditions: buffer
Record label 1 whenever solubility is at 2000 µM or higher; record label 0 when lower.

• Nc1nnc(-c2ccc3nn[nH]c3c2)s1 = label 1
• NCCc1ccc(-c2nnc(N)s2)cc1 = label 1
• Nc1nnc(-c2cccc(NS(=O)(=O)c3cccc([N+](=O)[O-])c3)c2)s1 = label 0
• Nc1nnc(-c2cc(=O)c3ccccc3o2)s1 = label 0
• Nc1nnc(CCC(=O)c2cccs2)s1 = label 0
• N#Cc1ccc(-c2nnc(N)s2)cc1 = label 0
• Nc1nnc(-c2cccc([N+](=O)[O-])c2)s1 = label 0
• Cc1ccc(-c2nnc(N)s2)cc1C = label 0
• Nc1nnc(CCCl)s1 = label 1
• Nc1nnc(-c2cnccc2N)s1 = label 0

Request: Could you please find out whether CCC(C)c1nnc(N)s1 (stereo not given) has solubility that meets 2000 µM or exceeds it?
Response: label 1

Request: Same again, this time with Nc1nnc(CCCC(=O)c2ccccc2)s1
Response: label 0

Request: One more compound: Nc1nnc(CN2C(=O)c3ccccc3C2=O)s1
Response: label 0

---

assay: Lipophilicity, log D of the compound in octanol buffer at pH 7.4; format: physicochemical
// reported logD for each item listed

Request: So what does the record say about logD for Nc1nnc(-c2cccc(NS(=O)(=O)c3cccc([N+](=O)[O-])c3)c2)s1 ?
Response: 2.36

Request: Here is the next molecule: Nc1nnc(CCCl)s1
Response: 0.44

Request: Try this molecule next: NCCc1ccc(-c2nnc(N)s2)cc1
Response: -0.69

---

assay: Solubility of the compound at pH 7.4; assay type: physicochemical; settings: buffer
A collection of molecules and their measured log10 of solubility
In plain terms, each number is the log10 of measured solubility in µM.

* Nc1nnc(-c2ccccc2)s1 | 3.30
* Cc1nnc(N)s1 | 5.32
* Nc1nnc(CCOc2ccc(Cl)cc2)s1 | 2.38
* CCOc1ccc(-c2nnc(N)s2)cc1 | 2.64

Request: Which log10 of solubility is reported for this molecule? Nc1nnc(-c2ccco2)s1
Response: 4.11

Request: Nc1nnc(CCc2ccccc2)s1 , same question.
Response: 3.11
